Entries and their measured pC25 follow.
Tgt: Adrenergic receptor alpha (Rattus norvegicus) (UniProt P15823+P23944+P43140+P22086+P19328+P22909)
Test description: Central hypotensive activity in anesthetized normotensive rats.
Format: functional
Field format: numeric only.

Worked set:
Clc1cccc(Cl)c1/C=N/NC1=NCCN1    0.63
c1ccc2c(CC3=NCCN3)cccc2c1 [NAPHAZOLINE]    0.95
Brc1c(NC2=NCCN2)ccc2nccnc12 [BRIMONIDINE]    1.55
Clc1cccc(Cl)c1CC1=NCCN1    0.68

// moving on: another record for pC25
// sample `Clc1cc(Br)cc(Cl)c1N=C1NCCN1` , its pC25 was 0.84

----------
Tgt: Adrenergic receptor alpha (Rattus norvegicus) (UniProt P15823+P23944+P43140+P22086+P19328+P22909)
Test description: Peripheral hypertensive activity in pithed normotensive rats.
Assay type: functional
Endpoint: pC60
Field format: numeric only.

Brc1c(NC2=NCCN2)ccc2nccnc12 [BRIMONIDINE]    1.56
Clc1cccc(Cl)c1C1=CN2CCN=C2S1    2.4
FC(F)(F)c1cc(Br)cc(Br)c1NC1=NCCN1    -0.26
Clc1cc(Br)cc(Cl)c1N=C1NCCN1    1.22
Clc1cccc(Cl)c1CC1=NCCN1    1.17
c1ccc2c(CC3=NCCN3)cccc2c1 [NAPHAZOLINE]    1.83
Clc1cccc(Cl)c1/C=N/NC1=NCCN1    0.23
Cc1cccc(C)c1NC1=NCCCS1    -0.02
CC(Oc1c(Cl)cccc1Cl)C1=NCCN1 (stereo not drawn) [LOFEXIDINE]    1.99
Brc1cc(Br)c(N=C2NCCN2)c(Br)c1    0.65

// sample `Clc1cccc(Cl)c1SC1=NCCN1` , its pC60 was 1.24

// sample c1ccc2c(c1)CCCC2C1=NCCN1 (stereo not drawn) [TETRAHYDROZOLINE] , its pC60 was 0.9

// sample C=CCN1CCc2nc(N)sc2CC1 [TALIPEXOLE] , its pC60 was 0.69

----------
Tgt: Adrenergic receptor alpha (Rattus norvegicus) (UniProt P15823+P23944+P43140+P22086+P19328+P22909)
Test description: Peripheral hypertensive activity in pithed normotensive rats.
Assay type: functional
Entries and their measured pC60 follow.

Worked set:
CCN1CCc2nc(N)oc2CC1 [AZEPEXOLE]    -0.41
Clc1cccc(Cl)c1NC1=NCCN1    1.78
Cc1csc(Cl)c1NC1=NCCN1    1.2
c1cc2c(c(NC3=NCCN3)c1)CCCC2    1.8
Clc1cccc(Cl)c1NC1=NCCCN1    -0.79

// moving on: another record for pC60
// sample `Cc1cc(C(C)(C)C)cc(C)c1CC1=NCCN1` , its pC60 was 1.12

----------
Entries and their measured logD follow.
Test description: Partition coefficient (logD7.4)
Assay type: physicochemical
Condition: octanol/water, pH 7.4
Field format: numeric only.

Worked set:
Brc1c(NC2=NCCN2)ccc2nccnc12 [BRIMONIDINE]    0.31
CC(Oc1c(Cl)cccc1Cl)C1=NCCN1 (stereo unspecified) [LOFEXIDINE]    0.73
c1cc2c(c(NC3=NCCN3)c1)CCCC2 [TRAMAZOLINE]    -0.62
Cc1csc(Cl)c1NC1=NCCN1 [TIAMENIDINE]    -0.17
Clc1cccc(Cl)c1SC1=NCCN1    1.36
Brc1cc(Br)c(N=C2NCCN2)c(Br)c1    2.51
Clc1cccc(Cl)c1N=C1NCCN1 [CLONIDINE]    0.85
c1ccc2c(c1)CCCC2C1=NCCN1 (stereo unspecified) [TETRAHYDROZOLINE]    -0.9

// moving on: another record for logD
// sample `Clc1cccc(Cl)c1CC1=NCCN1` , its logD was -0.53

----------
Tgt: Adrenergic receptor alpha (Rattus norvegicus) (UniProt P15823+P23944+P43140+P22086+P19328+P22909)
Test description: Central hypotensive activity in anesthetized normotensive rats.
Format: functional
Endpoint: pC25
Field format: numeric only.

Worked set:
Cc1csc(Cl)c1NC1=NCCN1 [TIAMENIDINE]    0.69
Clc1cccc(Cl)c1SC1=NCCN1    0.88
Cc1cccc(C)c1NC1=NCCCS1    0.62
CC(Oc1c(Cl)cccc1Cl)C1=NCCN1 (stereo unspecified) [LOFEXIDINE]    2.09
Clc1cccc(Cl)c1C1=CN2CCN=C2S1    2.77

// moving on: another record for pC25
// sample c1cc2c(c(NC3=NCCN3)c1)CCCC2 [TRAMAZOLINE] , its pC25 was 0.55

----------
Test description: Partition coefficient (logD7.4)
Format: physicochemical
Condition: octanol/water, pH 7.4
Classification field: 1.0 = logD at or over 1; 0.0 = logD under 1.

Past entries and their recorded results:
CCN1CCc2nc(N)oc2CC1 [AZEPEXOLE]    0.0
Clc1cccc(Cl)c1C1=CN2CCN=C2S1    1.0
Clc1cccc(Cl)c1N=C1NCCCN1    0.0
c1ccc2c(CC3=NCCN3)cccc2c1 [NAPHAZOLINE]    0.0
Cc1cc(C(C)(C)C)cc(C)c1CC1=NCCN1 [XYLOMETAZOLINE]    0.0

Given `CC[C@H]1CCC[C@@H](C)[C@@H]1NC1=NCCO1` , state whether its logD is at least 1.
1.0

Given Cc1cccc(C)c1N=C1NCCCS1 [XYLAZINE] , state whether its logD is at least 1.
1.0

Given `Cc1cccc(C)c1/N=C1/NCCO1` , state whether its logD is at least 1.
1.0

Given `FC(F)(F)c1cc(Br)cc(Br)c1NC1=NCCN1` , state whether its logD is at least 1.
1.0

Given `Clc1cc(Br)cc(Cl)c1N=C1NCCN1` , state whether its logD is at least 1.
1.0

Given `Clc1cccc(Cl)c1/C=N/NC1=NCCN1` , state whether its logD is at least 1.
1.0

Given C=CCN1CCc2nc(N)sc2CC1 [TALIPEXOLE] , state whether its logD is at least 1.
1.0

----------
Tgt: Adrenergic receptor alpha (Rattus norvegicus) (UniProt P15823+P23944+P43140+P22086+P19328+P22909)
Test description: Central hypotensive activity in anesthetized normotensive rats.
Format: functional
Entries and their measured pC25 follow.
Field format: numeric only.

// sample `Cc1cc(C(C)(C)C)cc(C)c1CC1=NCCN1` , its pC25 was 0.26

// sample C=CCN1CCc2nc(N)sc2CC1 [TALIPEXOLE] , its pC25 was 1.43

// sample c1ccc2c(c1)CCCC2C1=NCCN1 (stereo not given) [TETRAHYDROZOLINE] , its pC25 was -0.16

// sample `Clc1cccc(Cl)c1NC1=NCCN1` , its pC25 was 2.04

// sample CCN1CCc2nc(N)oc2CC1 [AZEPEXOLE] , its pC25 was -0.14
